Recorded values, source patent US20200147039A1.

- Tested on: MDA-MB-361
- Experiment Description: AlamarBlue cell viability assay, MDA-MB-361
- Format: cell-based
- Stated Conditions: Homo sapiens, Mammary
Metric: IC50 (nM)
Quick reminder: number only, in nM, skip the unit.

Give IC50 only, for Cc1cc(-c2ccc(C3C(C#N)=C(N)Oc4c3c(=O)oc3ccccc43)cc2)cnc1F (stereo not shown) , using MDA-MB-361 data.
1610

###

- Test system: H1299
- Experiment Description: AlamarBlue cell viability assay, H1299
- Format: cell-based
- Stated Conditions: Homo sapiens, NCI-H1299, Lung
Metric: IC50
Note: state the figure and append the unit.

Give IC50 only, for Cc1cc(-c2ccc(C3C(C#N)=C(N)Oc4c3c(=O)oc3ccccc43)cc2)cnc1F (stereo not shown) , using H1299 data.
18.6 µM

###

- Test system: AGS
- Experiment Description: AlamarBlue cell viability assay, AGS
- Assay type: cell-based
- Stated Conditions: Homo sapiens, Gastric
Metric: pIC50
Expect pIC50 as a plain number equal to -log10 of the molar concentration.

Give pIC50 only, for Cc1cc(-c2ccc(C3C(C#N)=C(N)Oc4c3c(=O)oc3ccccc43)cc2)cnc1F (stereo not shown) , using AGS data.
5.51

###

- Test system: H1975
- Experiment Description: AlamarBlue cell viability assay, H1975
- Assay type: cell-based
- Stated Conditions: Homo sapiens, NCI-H1975, Lung
Metric: IC50 (µM)
Quick reminder: number only, in µM, skip the unit.

Answer with the recorded IC50 of Cc1cc(-c2ccc(C3C(C#N)=C(N)Oc4c3c(=O)oc3ccccc43)cc2)cnc1F (stereo not shown) [Compound 43] only.
11.8

###

- Test system: DU145
- Experiment Description: AlamarBlue cell viability assay, DU145
- Assay type: cell-based
- Stated Conditions: Homo sapiens, DU-145, Prostate
Metric: pIC50
Expect pIC50 as a plain number equal to -log10 of the molar concentration.

Answer with the recorded pIC50 of Cc1cc(-c2ccc(C3C(C#N)=C(N)Oc4c3c(=O)oc3ccccc43)cc2)cnc1F (stereo not shown) only.
5.72

###

- System: ECC1
- Experiment Description: AlamarBlue cell viability assay, ECC1
- Type: cell-based
- Stated Conditions: Homo sapiens, ECC-1, Endometrial
Metric: IC50 (µM)
Quick reminder: number only, in µM, skip the unit.

Answer with the recorded IC50 of Cc1cc(-c2ccc(C3C(C#N)=C(N)Oc4c3c(=O)oc3ccccc43)cc2)cnc1F (stereo not shown) only.
4.64
